assay: NCI Yeast Anticancer Drug Screen. Data for the cln2 rad14 strain (AID 165);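 also: 0% = growth equal to vehicle treated cultures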; conditions: S. cerevisiae cln2 rad14 strain, at 50.0 µM, active compounds read high
Compounds without any hit were thinned out: in the full panel of roughly 79,000, 15% have a hit.
QUANTITY MEASURED: growth inhibition (%)
Answers are plain numbers, in %.

Known results for compounds:
COMPOUND	growth inhibition / %
C[C@]12CC[C@H]3[C@@H](CC[C@]4(O)C[C@@H](O)CC[C@]34CO)[C@@]1(O)CC[C@@H]2C1=CC(=O)OC1	0.45
CCC1(CC)C(=O)NC(=NCCCC(N)C(=O)O)NC1=O (stereo unspecified)	11.4
Cc1cc(C)c(C#N)c(SSC(Cl)(Cl)Cl)n1	15.1
CN(C)C1C(=O)C(C(=O)NP(=O)(NCCCO)N(CCCl)CCCl)=C(O)C2(O)C(=O)C3=C(O)c4c(O)cccc4C(C)(O)C3CC12 (stereo unspecified)	15.3

Dear colleague, could you please provide growth inhibition for the compounds listed below?
1. CN(C)C(=O)Sc1c(S(=O)(=O)F)ccc(Cl)c1Cl
2. O=C1NC2NC3NC(=O)NC3NC2N1 (stereo unspecified)
3. [C-]#[O+].[C-]#[O+].[C-]#[O+].[CH3][Sn]([c]1ccccc1)[c]1ccccc1.[W].[c-]1[c-][c-][cH-][c-]1
4. COc1cc(/C=C(\C)[N+](=O)[O-])cc(OC)c1
5. O=C1CN=C(c2ccccc2)c2ccncc2N1
6. CCOP(=O)(OCC)Oc1ccc(S(C)=O)cc1 (stereo unspecified)
7. CCOP(=S)(OCC)Oc1cnn(C)c(=S)c1Cl

[20.9, -5.25, 97.5, 58.2, 19.1, -10.2, 10.3]
